# credit: paper PMC4336329

target: human ether-à-go-go-related gene (hERG) potassium channel (human); test: primary screen, population patch clamp on CHO cells stably expressing hERG; higher = less effect of the substance;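 further: peak tail current of the secondary pulse compared with the same well before compound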
Sequence (Q12809 whole entry, looked up): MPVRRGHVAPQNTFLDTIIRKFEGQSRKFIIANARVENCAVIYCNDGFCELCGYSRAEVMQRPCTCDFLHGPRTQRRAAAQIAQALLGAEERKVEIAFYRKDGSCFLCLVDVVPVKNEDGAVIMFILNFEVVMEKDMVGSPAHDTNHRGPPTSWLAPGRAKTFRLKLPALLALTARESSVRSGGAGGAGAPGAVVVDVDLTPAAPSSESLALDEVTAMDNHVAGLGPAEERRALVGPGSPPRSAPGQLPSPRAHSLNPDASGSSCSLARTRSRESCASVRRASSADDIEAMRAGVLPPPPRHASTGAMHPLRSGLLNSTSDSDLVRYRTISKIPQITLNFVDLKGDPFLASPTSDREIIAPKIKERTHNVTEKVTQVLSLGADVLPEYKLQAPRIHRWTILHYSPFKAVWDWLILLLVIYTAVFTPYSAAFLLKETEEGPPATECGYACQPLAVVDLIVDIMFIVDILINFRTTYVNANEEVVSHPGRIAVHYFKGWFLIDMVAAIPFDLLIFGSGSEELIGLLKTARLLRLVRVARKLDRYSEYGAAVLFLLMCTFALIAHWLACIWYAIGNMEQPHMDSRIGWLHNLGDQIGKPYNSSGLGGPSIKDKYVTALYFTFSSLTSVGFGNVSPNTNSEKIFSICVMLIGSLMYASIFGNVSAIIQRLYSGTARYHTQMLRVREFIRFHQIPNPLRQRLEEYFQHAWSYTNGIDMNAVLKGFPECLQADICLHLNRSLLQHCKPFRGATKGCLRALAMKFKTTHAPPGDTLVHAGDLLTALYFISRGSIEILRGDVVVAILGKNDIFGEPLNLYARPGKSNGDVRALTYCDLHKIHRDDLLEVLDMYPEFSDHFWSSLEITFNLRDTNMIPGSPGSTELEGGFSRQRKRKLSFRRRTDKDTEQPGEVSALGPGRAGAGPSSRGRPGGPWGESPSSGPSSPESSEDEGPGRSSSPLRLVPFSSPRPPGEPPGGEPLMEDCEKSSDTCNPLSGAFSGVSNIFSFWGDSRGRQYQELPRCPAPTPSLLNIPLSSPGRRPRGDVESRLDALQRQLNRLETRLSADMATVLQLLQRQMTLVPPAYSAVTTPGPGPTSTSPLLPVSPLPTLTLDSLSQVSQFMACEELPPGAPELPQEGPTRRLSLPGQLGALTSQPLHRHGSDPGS
Screen size: about 310,000 compounds; about 14,000 (4.5%) showed an effect of 50% or more. The effect is printed as a negative number. The list comes from a sample in which strong results are over-represented; it also holds close analogues and randomly drawn compounds.
Answer n if hERG current change (%, negative = inhibition) at 10uM is under -20%, and y if it is -20% or more.

1) O=C(OCc1cccc([N+](=O)[O-])c1)c1ccc2ccccc2n1	y
2) CN(CCCNC(=O)COc1cc(=O)n(C)c2ccccc12)Cc1ccccc1	y
3) Cc1ccc(CNC(=O)CNS(=O)(=O)c2ccc(Br)s2)cc1	y
4) Cc1c(C(=O)N2CCN(c3ccccc3F)CC2)sc2nc(-c3ccccc3)cn12	y
5) CCN(CC)S(=O)(=O)c1ccc(C(=O)OCCN2C(=O)CCC2=O)cc1	y

State whether the measured hERG current change (%, negative = inhibition) at 10uM reaches -20%, counting equality as reaching it, for Cc1ccc(C(=O)N/C(=C\c2cccs2)C(=O)NCc2cccnc2)cc1
n

State whether the measured hERG current change (%, negative = inhibition) at 10uM reaches -20%, counting equality as reaching it, for CN(CCCNC(=O)CSc1cc(=O)n(C)c2ccc(Cl)cc12)Cc1ccccc1
n

State whether the measured hERG current change (%, negative = inhibition) at 10uM reaches -20%, counting equality as reaching it, for Cc1cccc(CN2CCC(CNC(=O)CSc3cc(=O)n(C)c4cc(Cl)ccc34)CC2)c1
n

State whether the measured hERG current change (%, negative = inhibition) at 10uM reaches -20%, counting equality as reaching it, for COC(=O)C1CCN(C(=O)c2sc3nc(-c4ccc(F)cc4)cn3c2C)CC1
n

State whether the measured hERG current change (%, negative = inhibition) at 10uM reaches -20%, counting equality as reaching it, for Cc1ccc(C(=O)NC(=S)NCc2cccnc2)cc1
y

State whether the measured hERG current change (%, negative = inhibition) at 10uM reaches -20%, counting equality as reaching it, for COc1cc(/C=C(\C#N)C(=O)NCc2cccs2)ccc1O
y

State whether the measured hERG current change (%, negative = inhibition) at 10uM reaches -20%, counting equality as reaching it, for CCSc1nnc2c(Cl)cc(Cl)cn12
y

State whether the measured hERG current change (%, negative = inhibition) at 10uM reaches -20%, counting equality as reaching it, for Cc1c(C(=O)NC2CCOC2)oc2c(F)cccc12 (centres unmarked)
y

State whether the measured hERG current change (%, negative = inhibition) at 10uM reaches -20%, counting equality as reaching it, for COC(=O)C(Cc1ccccc1)NC(=O)c1cccc(S(=O)(=O)N(C)C)c1 (centres unmarked)
y

State whether the measured hERG current change (%, negative = inhibition) at 10uM reaches -20%, counting equality as reaching it, for O=C(O)CCSc1nnnn1-c1ccccc1
y

State whether the measured hERG current change (%, negative = inhibition) at 10uM reaches -20%, counting equality as reaching it, for O=C(NCCNC1CCN(Cc2ccccc2)CC1)c1cccs1
y

State whether the measured hERG current change (%, negative = inhibition) at 10uM reaches -20%, counting equality as reaching it, for CCCNC(=O)CN(CCc1ccccc1)S(C)(=O)=O
y

State whether the measured hERG current change (%, negative = inhibition) at 10uM reaches -20%, counting equality as reaching it, for CN(CCCNC(=O)CSc1cc(=O)n(C)c2cc(Cl)ccc12)Cc1ccccc1
n

State whether the measured hERG current change (%, negative = inhibition) at 10uM reaches -20%, counting equality as reaching it, for CCN1CCCC1CNC(=O)CSc1cc(=O)n(C)c2cc(Cl)ccc12 (centres unmarked)
n

State whether the measured hERG current change (%, negative = inhibition) at 10uM reaches -20%, counting equality as reaching it, for CCOC(=O)N1CCN(C(=O)c2sc3nc(-c4ccc(F)cc4)cn3c2C)CC1
n

State whether the measured hERG current change (%, negative = inhibition) at 10uM reaches -20%, counting equality as reaching it, for C=CCNC(=O)c1ccc2nc(-c3ccccc3)c(-c3ccccc3)nc2c1
y

State whether the measured hERG current change (%, negative = inhibition) at 10uM reaches -20%, counting equality as reaching it, for CN1CCN(c2ccc(NC(=O)Oc3ccccc3)cc2)CC1
y

State whether the measured hERG current change (%, negative = inhibition) at 10uM reaches -20%, counting equality as reaching it, for C/C(=N\NC(=O)C(O)(c1ccccc1)c1ccccc1)c1ccc(C)o1
y

State whether the measured hERG current change (%, negative = inhibition) at 10uM reaches -20%, counting equality as reaching it, for O=C1COc2ccc(-c3n[nH]c(=O)c4ccccc34)cc2N1
y

State whether the measured hERG current change (%, negative = inhibition) at 10uM reaches -20%, counting equality as reaching it, for Cc1c(NC(=O)CSc2nccn2C)c(=O)n(-c2ccccc2)n1C
y

State whether the measured hERG current change (%, negative = inhibition) at 10uM reaches -20%, counting equality as reaching it, for CCN(CCCNC(=O)CSc1cc(=O)n(C)c2cc(Cl)ccc12)Cc1ccccc1
n

State whether the measured hERG current change (%, negative = inhibition) at 10uM reaches -20%, counting equality as reaching it, for CCCCNC(=O)CSc1cc(=O)n(C)c2ccccc12
y
